- ASSAY: Inhibition of c-Src tyrosine kinase
# pIC50 per entry
Convention used: pIC50 is expressed as -log10 of the molar concentration.

What does the data say about its pIC50? Entry: CC(C)(Nc1nc(NO)nc(Nc2ccc3ncsc3c2)n1)c1ccccc1
5.74

Another: CC(C)(Nc1nc(O)nc(Nc2ccc3ncsc3c2)n1)c1ccccc1
5.37

Another: CCN(Cc1ccccc1)c1nc(O)nc(Nc2ccc3ncsc3c2)n1
5.51

###

- ASSAY: Inhibition of fibroblast growth factor receptor 1
pIC50: −log10 of the molar value.
QUANTITY MEASURED: pIC50

- SMILES STRING: "CC(C)(Nc1nc(NO)nc(Nc2ccc3ncsc3c2)n1)c1ccccc1"
  QUANTITY MEASURED: "pIC50"
  RESULT: 5.74
- SMILES STRING: "CC(C)(Nc1nc(O)nc(Nc2ccc3ncsc3c2)n1)c1ccccc1"
  QUANTITY MEASURED: "pIC50"
  RESULT: "< 4.90"

What does the data say about its pIC50? Entry: CC(C)N(Cc1ccccc1)c1nc(O)nc(Nc2ccc3ncsc3c2)n1
< 4.90

###

# pIC50 per entry
- ASSAYED TARGET: Epidermal growth factor receptor (Homo sapiens)
- Sequence (P00533 whole entry): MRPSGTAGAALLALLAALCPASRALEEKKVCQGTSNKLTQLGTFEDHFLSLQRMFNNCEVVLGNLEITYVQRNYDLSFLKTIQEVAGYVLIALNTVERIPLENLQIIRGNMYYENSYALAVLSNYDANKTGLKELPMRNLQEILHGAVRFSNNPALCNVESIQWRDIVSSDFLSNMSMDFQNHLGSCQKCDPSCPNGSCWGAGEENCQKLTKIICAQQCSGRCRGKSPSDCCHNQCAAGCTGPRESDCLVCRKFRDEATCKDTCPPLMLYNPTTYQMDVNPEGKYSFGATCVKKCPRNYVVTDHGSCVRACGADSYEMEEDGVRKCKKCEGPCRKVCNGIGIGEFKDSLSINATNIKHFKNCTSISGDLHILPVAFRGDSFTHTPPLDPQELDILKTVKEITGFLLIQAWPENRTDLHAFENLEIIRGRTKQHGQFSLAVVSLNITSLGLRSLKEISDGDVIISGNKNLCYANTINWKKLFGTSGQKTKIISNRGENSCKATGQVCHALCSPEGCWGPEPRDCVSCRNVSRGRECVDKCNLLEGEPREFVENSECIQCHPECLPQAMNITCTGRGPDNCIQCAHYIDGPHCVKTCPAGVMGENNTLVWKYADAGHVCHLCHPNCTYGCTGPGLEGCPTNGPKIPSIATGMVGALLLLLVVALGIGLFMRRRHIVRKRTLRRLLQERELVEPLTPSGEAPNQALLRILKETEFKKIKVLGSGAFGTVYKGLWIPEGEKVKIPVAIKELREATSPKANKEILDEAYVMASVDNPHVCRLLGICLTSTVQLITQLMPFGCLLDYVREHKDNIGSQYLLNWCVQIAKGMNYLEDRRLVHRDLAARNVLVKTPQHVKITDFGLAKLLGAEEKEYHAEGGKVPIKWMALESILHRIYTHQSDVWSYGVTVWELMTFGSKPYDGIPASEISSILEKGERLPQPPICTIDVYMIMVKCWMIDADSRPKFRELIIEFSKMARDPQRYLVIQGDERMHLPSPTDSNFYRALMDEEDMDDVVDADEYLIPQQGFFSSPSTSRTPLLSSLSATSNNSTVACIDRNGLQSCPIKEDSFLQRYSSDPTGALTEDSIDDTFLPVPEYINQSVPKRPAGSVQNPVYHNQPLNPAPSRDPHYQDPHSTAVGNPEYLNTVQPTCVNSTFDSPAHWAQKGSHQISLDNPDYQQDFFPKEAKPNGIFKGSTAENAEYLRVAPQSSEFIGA
- ASSAY: Inhibition of human Epidermal growth factor receptor expressed in A431
pIC50: −log10 of the molar value.

- SMILES STRING: "CCN(Cc1ccccc1)c1nc(O)nc(Nc2ccc3ncsc3c2)n1"
  pIC50: "< 5.00"
- SMILES STRING: "CC(C)(Nc1nc(O)nc(Nc2ccc3ncsc3c2)n1)c1ccccc1"
  pIC50: "< 5.00"

// lookup pIC50 | system=Epidermal growth factor receptor (Homo sapiens) | key= CC(C)(Nc1nc(NO)nc(Nc2ccc3ncsc3c2)n1)c1ccccc1
< 5.00

###

# pIC50 per entry
- ASSAYED TARGET: Platelet-derived growth factor receptor (Homo sapiens, UniProt P09619+P16234)
- ASSAY: Inhibition of PDGF-R2 tyrosine kinase
Convention used: pIC50 is expressed as -log10 of the molar concentration.

- SMILES STRING: "CC(C)(Nc1nc(O)nc(Nc2ccc3ncsc3c2)n1)c1ccccc1"
  pIC50: 5.10
- SMILES STRING: "CCN(Cc1ccccc1)c1nc(O)nc(Nc2ccc3ncsc3c2)n1"
  pIC50: 5.60

What does the data say about its pIC50? Entry: CC(C)(Nc1nc(NO)nc(Nc2ccc3ncsc3c2)n1)c1ccccc1
5.41

###

- ASSAYED TARGET: Insulin receptor (Homo sapiens, UniProt P06213)
- Sequence (P06213 28-758 limits assumed): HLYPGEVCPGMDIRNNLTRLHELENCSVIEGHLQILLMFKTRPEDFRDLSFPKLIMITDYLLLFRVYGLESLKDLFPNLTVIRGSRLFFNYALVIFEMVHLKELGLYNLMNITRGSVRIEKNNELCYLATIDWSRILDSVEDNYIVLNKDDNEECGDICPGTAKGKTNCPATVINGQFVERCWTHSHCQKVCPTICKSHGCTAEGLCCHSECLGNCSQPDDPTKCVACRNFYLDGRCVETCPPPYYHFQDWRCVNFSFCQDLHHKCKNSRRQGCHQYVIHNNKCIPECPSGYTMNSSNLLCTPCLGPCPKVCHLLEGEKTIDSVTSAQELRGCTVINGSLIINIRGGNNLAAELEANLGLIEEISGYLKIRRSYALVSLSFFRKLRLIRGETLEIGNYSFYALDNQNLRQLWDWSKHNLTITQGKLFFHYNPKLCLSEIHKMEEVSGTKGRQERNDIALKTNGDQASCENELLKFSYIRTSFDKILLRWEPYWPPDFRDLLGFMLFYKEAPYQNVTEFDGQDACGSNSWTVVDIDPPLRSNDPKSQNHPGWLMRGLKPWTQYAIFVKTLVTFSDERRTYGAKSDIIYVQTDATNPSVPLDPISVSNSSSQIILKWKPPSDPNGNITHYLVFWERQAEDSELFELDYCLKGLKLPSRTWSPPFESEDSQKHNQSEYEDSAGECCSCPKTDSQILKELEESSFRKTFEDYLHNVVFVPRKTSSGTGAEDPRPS
- Sequence (P06213 763-1382 limits assumed): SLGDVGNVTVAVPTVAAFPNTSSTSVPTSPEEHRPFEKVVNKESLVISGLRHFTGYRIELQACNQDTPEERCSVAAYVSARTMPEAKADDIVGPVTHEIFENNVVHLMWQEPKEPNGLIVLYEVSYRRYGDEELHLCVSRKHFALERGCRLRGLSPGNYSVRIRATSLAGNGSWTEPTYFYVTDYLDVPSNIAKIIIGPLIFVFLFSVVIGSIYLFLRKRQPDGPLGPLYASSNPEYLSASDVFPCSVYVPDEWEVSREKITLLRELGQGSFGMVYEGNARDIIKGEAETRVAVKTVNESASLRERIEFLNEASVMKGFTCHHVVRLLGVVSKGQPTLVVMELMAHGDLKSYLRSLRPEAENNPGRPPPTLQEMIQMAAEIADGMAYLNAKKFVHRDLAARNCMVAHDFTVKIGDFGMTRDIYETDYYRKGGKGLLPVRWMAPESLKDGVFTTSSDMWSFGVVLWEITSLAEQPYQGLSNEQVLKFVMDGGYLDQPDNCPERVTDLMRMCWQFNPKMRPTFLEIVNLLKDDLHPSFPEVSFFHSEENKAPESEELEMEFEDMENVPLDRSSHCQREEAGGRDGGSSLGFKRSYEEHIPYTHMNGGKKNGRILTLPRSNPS
- ASSAY: Inhibition of beta IRK tyrosine kinase
# pIC50 per entry
Convention used: pIC50 is expressed as -log10 of the molar concentration.

Below, each entry is followed by its recorded pIC50 result.
- SMILES STRING: "CC(C)(Nc1nc(O)nc(Nc2ccc3ncsc3c2)n1)c1ccccc1"
  ASSAYED TARGET: "Insulin receptor (Homo sapiens, UniProt P06213)"
  QUANTITY MEASURED: "pIC50"
  NUMBER: 6.26
- SMILES STRING: "CC(C)(Nc1nc(NO)nc(Nc2ccc3ncsc3c2)n1)c1ccccc1"
  ASSAYED TARGET: "Insulin receptor (Homo sapiens, UniProt P06213)"
  QUANTITY MEASURED: "pIC50"
  NUMBER: 6.38
- SMILES STRING: "CC(C)N(Cc1ccccc1)c1nc(O)nc(Nc2ccc3ncsc3c2)n1"
  ASSAYED TARGET: "Insulin receptor (Homo sapiens, UniProt P06213)"
  QUANTITY MEASURED: "pIC50"
  NUMBER: 4.96

Continue with the next compound.
What does the data say about its pIC50? Entry: CCN(Cc1ccccc1)c1nc(O)nc(Nc2ccc3ncsc3c2)n1
5.40

###

- ASSAYED TARGET: Macrophage colony-stimulating factor 1 receptor (Homo sapiens)
QUANTITY MEASURED: pIC50
Convention used: pIC50 is expressed as -log10 of the molar concentration.

What does the data say about its pIC50? Entry: CCN(Cc1ccccc1)c1nc(O)nc(Nc2ccc3ncsc3c2)n1
5.37

###

- ASSAYED TARGET: Vascular endothelial growth factor receptor 2 (Homo sapiens, UniProt P35968)
- Sequence (P35968 whole entry): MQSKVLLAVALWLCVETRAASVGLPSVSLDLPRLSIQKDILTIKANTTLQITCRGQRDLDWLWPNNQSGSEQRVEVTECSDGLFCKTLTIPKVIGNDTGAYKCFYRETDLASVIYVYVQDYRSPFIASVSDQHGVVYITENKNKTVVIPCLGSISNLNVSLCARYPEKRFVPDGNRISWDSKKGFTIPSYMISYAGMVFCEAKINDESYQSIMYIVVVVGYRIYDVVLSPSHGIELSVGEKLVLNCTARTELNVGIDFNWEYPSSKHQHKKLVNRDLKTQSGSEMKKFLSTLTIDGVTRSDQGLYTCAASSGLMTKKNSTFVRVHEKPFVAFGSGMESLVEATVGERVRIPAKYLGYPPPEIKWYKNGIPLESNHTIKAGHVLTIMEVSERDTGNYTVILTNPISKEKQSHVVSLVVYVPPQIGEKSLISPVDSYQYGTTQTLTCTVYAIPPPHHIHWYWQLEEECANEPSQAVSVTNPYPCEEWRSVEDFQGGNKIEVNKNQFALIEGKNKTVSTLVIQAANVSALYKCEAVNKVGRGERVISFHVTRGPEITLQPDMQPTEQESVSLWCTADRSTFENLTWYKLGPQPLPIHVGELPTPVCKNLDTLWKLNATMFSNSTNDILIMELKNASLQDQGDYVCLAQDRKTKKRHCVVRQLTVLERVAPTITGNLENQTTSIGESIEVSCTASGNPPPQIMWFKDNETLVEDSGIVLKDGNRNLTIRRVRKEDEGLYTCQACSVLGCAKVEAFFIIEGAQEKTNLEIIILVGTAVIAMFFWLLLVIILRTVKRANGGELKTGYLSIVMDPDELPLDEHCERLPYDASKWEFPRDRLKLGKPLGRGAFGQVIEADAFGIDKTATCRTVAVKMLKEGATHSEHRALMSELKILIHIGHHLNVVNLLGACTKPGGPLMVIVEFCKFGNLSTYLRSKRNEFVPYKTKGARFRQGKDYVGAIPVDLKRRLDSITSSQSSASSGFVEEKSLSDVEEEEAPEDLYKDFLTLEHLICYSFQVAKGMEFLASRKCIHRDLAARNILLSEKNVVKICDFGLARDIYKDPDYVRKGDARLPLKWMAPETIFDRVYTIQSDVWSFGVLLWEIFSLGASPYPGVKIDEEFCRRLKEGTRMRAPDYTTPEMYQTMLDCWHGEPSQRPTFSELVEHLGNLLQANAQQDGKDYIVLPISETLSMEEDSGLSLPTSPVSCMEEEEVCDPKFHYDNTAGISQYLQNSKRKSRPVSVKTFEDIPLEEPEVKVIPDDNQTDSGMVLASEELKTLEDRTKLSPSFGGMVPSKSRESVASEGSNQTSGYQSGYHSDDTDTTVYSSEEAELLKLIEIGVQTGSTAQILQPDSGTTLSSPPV
- ASSAY: In vitro inhibition of Vascular endothelial growth factor receptor 2 at 10 uM ATP
QUANTITY MEASURED: pIC50
Convention used: pIC50 is expressed as -log10 of the molar concentration.

Below, each entry is followed by its recorded pIC50 result.
- SMILES STRING: "CC(C)(Nc1nc(O)nc(Nc2ccc3[nH]cnc3c2)n1)c1ccccc1"
  ASSAYED TARGET: "Vascular endothelial growth factor receptor 2 (Homo sapiens, UniProt P35968)"
  pIC50: 6.62
- SMILES STRING: "CC(C)(Nc1nc(Cl)nc(Nc2ccc3ncsc3c2)n1)c1ccccc1"
  ASSAYED TARGET: "Vascular endothelial growth factor receptor 2 (Homo sapiens, UniProt P35968)"
  pIC50: 5.26
- SMILES STRING: "Oc1nc(NCc2ccccc2)nc(Nc2ccc3ncsc3c2)n1"
  ASSAYED TARGET: "Vascular endothelial growth factor receptor 2 (Homo sapiens, UniProt P35968)"
  pIC50: 5.70

What does the data say about its pIC50? Entry: CC(C)N(Cc1ccccc1)c1nc(O)nc(Nc2ccc3ncsc3c2)n1
7.74

###

- ASSAYED TARGET: Angiopoietin-1 receptor (Homo sapiens, UniProt Q02763)
- Sequence (Q02763 whole entry): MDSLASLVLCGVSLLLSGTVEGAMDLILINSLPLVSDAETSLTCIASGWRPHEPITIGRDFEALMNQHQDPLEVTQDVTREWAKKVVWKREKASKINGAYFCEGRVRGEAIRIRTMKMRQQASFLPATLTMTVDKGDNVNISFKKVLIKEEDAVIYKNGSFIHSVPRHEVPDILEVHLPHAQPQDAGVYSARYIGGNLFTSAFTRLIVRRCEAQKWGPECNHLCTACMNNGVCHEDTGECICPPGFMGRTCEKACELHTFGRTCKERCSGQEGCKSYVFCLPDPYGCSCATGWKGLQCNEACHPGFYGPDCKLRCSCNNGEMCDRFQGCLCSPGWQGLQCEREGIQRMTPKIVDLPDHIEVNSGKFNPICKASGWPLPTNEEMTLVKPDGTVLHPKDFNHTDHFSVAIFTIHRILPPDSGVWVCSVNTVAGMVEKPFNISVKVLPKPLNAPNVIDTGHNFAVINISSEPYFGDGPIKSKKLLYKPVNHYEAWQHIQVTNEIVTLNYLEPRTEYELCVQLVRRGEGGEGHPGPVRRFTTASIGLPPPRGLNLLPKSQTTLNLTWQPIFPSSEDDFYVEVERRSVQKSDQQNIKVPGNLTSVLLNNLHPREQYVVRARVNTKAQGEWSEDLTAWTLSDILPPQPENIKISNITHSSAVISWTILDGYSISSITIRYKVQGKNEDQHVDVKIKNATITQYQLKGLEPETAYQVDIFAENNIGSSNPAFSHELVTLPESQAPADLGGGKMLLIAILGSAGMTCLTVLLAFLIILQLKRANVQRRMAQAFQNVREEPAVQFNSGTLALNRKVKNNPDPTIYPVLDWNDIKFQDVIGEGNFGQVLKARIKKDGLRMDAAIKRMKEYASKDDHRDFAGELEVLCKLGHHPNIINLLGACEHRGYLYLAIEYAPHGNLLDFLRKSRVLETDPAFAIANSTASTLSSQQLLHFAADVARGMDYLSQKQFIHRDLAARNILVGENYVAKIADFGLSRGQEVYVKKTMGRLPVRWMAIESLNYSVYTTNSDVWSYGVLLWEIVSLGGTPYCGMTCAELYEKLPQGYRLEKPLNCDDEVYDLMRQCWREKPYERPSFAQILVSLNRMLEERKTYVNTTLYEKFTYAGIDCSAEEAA
# IC50 per entry
# unit: nM | format: bare number

What does the data say about its IC50? Entry: CC(C)N(Cc1ccccc1)c1nc(O)nc(Nc2ccc3ncsc3c2)n1
180

Another: CCN(Cc1ccccc1)c1nc(O)nc(Nc2ccc3ncsc3c2)n1
400

Another: CC(C)(Nc1nc(O)nc(Nc2ccc3ncsc3c2)n1)c1ccccc1
1000

###

- ASSAYED TARGET: Vascular endothelial growth factor receptor 2 (Homo sapiens, UniProt P35968)
- ASSAY: Inhibition of KDR-induced MAP kinase autophosphorylation assay in HUVEC cells
- Format: functional, cell-based
QUANTITY MEASURED: IC50 (nM)
# unit: nM | format: bare number

- SMILES STRING: "CC(C)N(Cc1ccccc1)c1nc(O)nc(Nc2ccc3ncsc3c2)n1"
  IC50, nM: 280
- SMILES STRING: "CCN(Cc1ccccc1)c1nc(O)nc(Nc2ccc3ncsc3c2)n1"
  IC50, nM: 600

What does the data say about its IC50? Entry: CC(C)(Nc1nc(O)nc(Nc2ccc3ncsc3c2)n1)c1ccccc1
400

Another: CC(C)(Nc1nc(NO)nc(Nc2ccc3ncsc3c2)n1)c1ccccc1
840

Another: CC(C)(Nc1nc(Cl)nc(Nc2ccc3ncsc3c2)n1)c1ccccc1
1080

Another: CN(Cc1ccccc1)c1nc(O)nc(Nc2ccc3ncsc3c2)n1
2400

###

- ASSAYED TARGET: Vascular endothelial growth factor receptor 2 (Homo sapiens)
- ASSAY: In vitro inhibition of Vascular endothelial growth factor receptor 2 at 10 uM ATP
# pIC50 per entry
Convention used: pIC50 is expressed as -log10 of the molar concentration.

- SMILES STRING: "CC(C)(Nc1nc(NO)nc(Nc2ccc3ncsc3c2)n1)c1ccccc1"
  QUANTITY MEASURED: "pIC50"
  NUMBER: 7.40
- SMILES STRING: "COc1nc(Nc2ccc3ncsc3c2)nc(NC(C)(C)c2ccccc2)n1"
  QUANTITY MEASURED: "pIC50"
  NUMBER: 5.21
- SMILES STRING: "CC(C)(Nc1nc(O)nc(Nc2ccc3ncsc3c2)n1)c1ccccc1"
  QUANTITY MEASURED: "pIC50"
  NUMBER: 7.46

What does the data say about its pIC50? Entry: CCN(Cc1ccccc1)c1nc(O)nc(Nc2ccc3ncsc3c2)n1
7.31

Another: CN(Cc1ccccc1)c1nc(O)nc(Nc2ccc3ncsc3c2)n1
6.49

###

# IC50 per entry
- ASSAYED TARGET: Vascular endothelial growth factor receptor 2 (Homo sapiens, UniProt P35968)
- ASSAY: Inhibition of KDR-induced MAP kinase autophosphorylation assay in HUVEC cells
- Assay type: functional, cell-based

Below, each entry is followed by its recorded IC50 result.
- SMILES STRING: "COc1nc(Nc2ccc3ncsc3c2)nc(NC(C)(C)c2ccccc2)n1"
  QUANTITY MEASURED: "IC50"
  RESULT: "> 30 µM"
- SMILES STRING: "Oc1nc(NCc2ccccc2)nc(Nc2ccc3ncsc3c2)n1"
  QUANTITY MEASURED: "IC50"
  RESULT: "> 30 µM"

Continue with the next compound.
What does the data say about its IC50? Entry: CC(C)(Nc1nc(O)nc(Nc2ccc3[nH]cnc3c2)n1)c1ccccc1
> 20 µM
